- Experimental Target: human GPR40 (Homo sapiens, UniProt O14842)
- Construct: expressed in transfected cells; host or cells: HEK cells stably expressing the aequorin reporter
- Sequence (O14842 whole entry): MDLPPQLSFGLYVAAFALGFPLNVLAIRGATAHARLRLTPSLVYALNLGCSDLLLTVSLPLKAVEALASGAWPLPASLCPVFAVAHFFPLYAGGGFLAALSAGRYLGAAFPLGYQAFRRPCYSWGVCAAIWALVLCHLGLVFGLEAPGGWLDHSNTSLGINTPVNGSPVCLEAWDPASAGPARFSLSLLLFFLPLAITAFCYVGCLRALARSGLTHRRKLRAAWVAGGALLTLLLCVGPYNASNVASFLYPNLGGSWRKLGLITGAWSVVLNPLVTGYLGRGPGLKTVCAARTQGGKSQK
- Experiment: Inositol Phosphate Turnover (IP1) Assay 2
- Assay type: cell-based
- Condition Details: HEK cells stably expressing human GPR40; 15,000 cells per well; compound acoustically transferred; CisBio IP-One kit
# pEC50 per record follows
FYI, pEC50 means -log10 of a concentration in mol per litre.

Solved cases below.
- Compound: "COc1cc(-c2ccc([C@H]3CCc4ccc([C@H](C5CC5)[C@H](C)C(=O)O)cc4O3)cc2CN2CCCCC23CC3)c(F)cn1"
  Experimental Target: "human GPR40 (Homo sapiens, UniProt O14842)"
  pEC50: 9.52
- Compound: "COc1cc(-c2ccc(C3CCc4ccc([C@H](C5CC5)[C@H](C)C(=O)O)cc4O3)cc2CN2CCCC(C)(C)C2)c(F)cn1 (mixture of isomers)"
  Experimental Target: "human GPR40 (Homo sapiens, UniProt O14842)"
  pEC50: 9.14
- Compound: "COC[C@@H]1CC[C@@H](COC)N1Cc1cc(C2CCc3ccc([C@H](C4CC4)[C@H](C)C(=O)O)cc3O2)ccc1-c1cc(OC)ncc1F (stereo partly drawn)"
  Experimental Target: "human GPR40 (Homo sapiens, UniProt O14842)"
  pEC50: 8.96

Exercise: Entry under review: COC[C@@H]1CCCN1Cc1cc(C2CCc3ccc([C@H](C4CC4)[C@H](C)C(=O)O)cc3O2)ccc1-c1cc(OC)ncc1F (stereo partly drawn) . Reported pEC50?
Key: 8.68

Exercise: Entry under review: CCOc1cc(-c2ccc(C3CCc4ccc([C@H](C5CC5)[C@H](C)C(=O)O)cc4O3)cc2CN2CCCC2)c(F)cn1 (stereo partly drawn) [Example 77] . Reported pEC50?
Key: 7.54

Exercise: Entry under review: "COc1cc(-c2ccc([C@H]3CCc4ccc([C@H](C5CC5)[C@H](C)C(=O)O)cc4O3)cc2CN2CCC[C@@H]2C)c(F)cn1" . Reported pEC50?
Key: 8.34

Exercise: Entry under review: COc1cc(-c2ncc(C3CCc4ccc([C@H](C5CC5)[C@H](C)C(=O)O)cc4O3)nc2CN2CCCC2)c(F)cn1 (stereo partly drawn) . Reported pEC50?
Key: 6.08

Exercise: Entry under review: "COc1cc(-c2ccc([C@H]3CCc4ccc([C@H](C5CC5)[C@H](C)C(=O)O)cc4O3)cc2CN2CCCC[C@@H]2C)c(F)cn1" . Reported pEC50?
Key: 8.54

Exercise: Entry under review: COc1cc(-c2ccc(C3CCc4ccc([C@H](C5CCC5)[C@H](C)C(=O)O)cc4O3)cc2CN(C)C)c(F)cn1 (single isomer, unassigned) [Example 95] . Reported pEC50?
Key: 8.74

Exercise: Entry under review: COC[C@H]1CCCN1Cc1cc(C2CCc3ccc([C@H](C4CC4)[C@H](C)C(=O)O)cc3O2)ccc1-c1cc(OC)ncc1F (stereo partly drawn) . Reported pEC50?
Key: 8.74

Exercise: Entry under review: "COC[C@H]1CCCN1Cc1cc([C@H]2CCc3ccc([C@H](C4CC4)[C@H](C)C(=O)O)cc3O2)ccc1-c1cc(OC)ncc1F" . Reported pEC50?
Key: 8.48

Exercise: Entry under review: COc1cc(-c2ccc(C3CCc4ccc([C@H](C5CC5)[C@H](C)C(=O)O)cc4O3)cc2CN2CCn3cncc3C2)c(F)cn1 (mixture of isomers) . Reported pEC50?
Key: 6.74
